Molecular target: human MRGX2 receptor (Homo sapiens (Human), UniProt Q96LB1)
Sequence (Q96LB1 whole entry): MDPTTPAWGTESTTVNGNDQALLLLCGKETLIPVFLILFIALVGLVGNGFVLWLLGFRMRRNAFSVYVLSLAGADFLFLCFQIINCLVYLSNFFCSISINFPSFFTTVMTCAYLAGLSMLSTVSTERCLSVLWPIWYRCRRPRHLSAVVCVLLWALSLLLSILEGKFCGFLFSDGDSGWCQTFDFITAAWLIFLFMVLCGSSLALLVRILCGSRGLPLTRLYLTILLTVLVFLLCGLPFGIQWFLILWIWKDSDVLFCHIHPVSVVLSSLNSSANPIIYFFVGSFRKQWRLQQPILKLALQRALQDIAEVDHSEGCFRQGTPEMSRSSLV
Assay: In vitro radioligand binding assay (Kd)
Details: membrane from SF9 cells overexpressing human MRGX2; 3H-labeled ligand; pH 7.4, room temperature, 60 minutes
Kindly return TRUE if reported hMRGX2 Binding Affinity (pKd) is no lower than 7; return FALSE if it is lower.

Data request: Could you verify whether the entry O=S1(=O)N=C(NCCF)Nc2c(-c3cccc(F)c3Cl)cccc21 shows hMRGX2 Binding Affinity (pKd) of no less than 7?
Data returned: FALSE

Data request: In plain terms: is recorded hMRGX2 Binding Affinity (pKd) at least 7 for O=S1(=O)N=C(NCc2ncccc2F)Nc2c(-c3ccccc3Cl)cc(F)cc21 ?
Data returned: TRUE

Data request: Answer whether hMRGX2 Binding Affinity (pKd) of O=S1(=O)N=C(NCC2CC2)Nc2c(-c3cccc(F)c3Cl)cc(F)cc21 is greater than or equal to 7.
Data returned: TRUE

Data request: Is the recorded value of hMRGX2 Binding Affinity (pKd) equal to or greater than 7 for this compound? COCCNC1=NS(=O)(=O)c2cccc(-c3cccc(F)c3C#N)c2N1
Data returned: FALSE

Data request: State whether the measured hMRGX2 Binding Affinity (pKd) reaches 7, counting equality as reaching it, for CNC1=NS(=O)(=O)c2cccc(-c3ccccc3Cl)c2N1
Data returned: FALSE

----------
Biological target: hMRGX2 (CHO-K1 cells overexpressing MRGX2) (Homo sapiens (Human))
Sequence (Q96LB1 whole entry): as above
Assay: In vitro inhibition (EC50) of intracellular calcium flux, FLIPR Tetra, substance P stimulation
Format: cell-based
Conditions: stimulated with MRGX2 ligand substance P, FLIPR Calcium 5, read-out: hMRGX2 Cellular Potency (pEC50) (converted)
So basically: is EC50 under 200 nM? Then true (1). Not under? Then false (0).

Examples from the recorded data:
CN1CCOC(CNC2=NS(=O)(=O)c3cccc(-c4cccc(F)c4Cl)c3N2)C1 (stereo not drawn) [Example 57]    true (1)
COCCNC1=NS(=O)(=O)c2cccc(-c3cc(F)cc(F)c3Cl)c2N1 [Example 32]    true (1)
N#Cc1cnc(CNC2=NS(=O)(=O)c3cccc(-c4ccnc(F)c4Cl)c3N2)s1 [Example 55]    true (1)
O=S1(=O)N=C(NCC(F)F)Nc2c(-c3cccc(F)c3Cl)cc(F)cc21 [Example 10]    true (1)
O=S1(=O)N=C(NCc2ccccn2)Nc2c(-c3cc(F)ccc3F)cccc21 [Example 139]    false (0)

Data request: Record COC(C)CNC1=NS(=O)(=O)c2cccc(-c3cccc(F)c3Cl)c2N1 (stereo not drawn) [Example 33] : is its EC50 strictly below 200 nM?
Data returned: true (1)

Data request: Hello, I'm reviewing records and need to know if EC50 of O=S1(=O)N=C(NCC2CC2)Nc2c(-c3cccc(F)c3Cl)cccc21 [Example 29] is below 200 nM. Could you check?
Data returned: true (1)

Data request: For O=S1(=O)N=C(NCC(F)F)Nc2c(-c3cccc(F)c3Cl)cccc21 [Example 34] , is the recorded EC50 below the cut-off of 200 nM?
Data returned: true (1)

Data request: Find out if reported EC50 for CNC1=NS(=O)(=O)c2cccc(-c3ccnc(F)c3Cl)c2N1 [Example 56] is less than 200 nM
Data returned: false (0)

Data request: Consider the molecule Cc1ccccc1-c1cccc2c1NC(NCc1ccco1)=NS2(=O)=O [Example 137] . Is its EC50 strictly less than 200 nM?
Data returned: true (1)

Data request: In plain terms, does CNC1=NS(=O)(=O)c2cccc(-c3cc(F)ccc3Cl)c2N1 [Example 93] come in under 200 nM for EC50?
Data returned: true (1)

Data request: Lab note: EC50 threshold 200 nM. Does this molecule come in strictly under it? COCCNC1=NS(=O)(=O)c2cccc(-c3cc(C(F)(F)F)ccc3Cl)c2N1 [Example 134]
Data returned: false (0)

Data request: Consider the molecule O=S1(=O)N=C(NCC2CC2)Nc2c(-c3cc(F)ccc3F)cccc21 [Example 140] . Is its EC50 strictly less than 200 nM?
Data returned: false (0)

Provenance of the data: patent US12247015B2
